Molecular target: T1R1/T1R3 (Homo sapiens (Human), UniProt Q7RTX0+Q7RTX1)
Sequence (Q7RTX1 21-841): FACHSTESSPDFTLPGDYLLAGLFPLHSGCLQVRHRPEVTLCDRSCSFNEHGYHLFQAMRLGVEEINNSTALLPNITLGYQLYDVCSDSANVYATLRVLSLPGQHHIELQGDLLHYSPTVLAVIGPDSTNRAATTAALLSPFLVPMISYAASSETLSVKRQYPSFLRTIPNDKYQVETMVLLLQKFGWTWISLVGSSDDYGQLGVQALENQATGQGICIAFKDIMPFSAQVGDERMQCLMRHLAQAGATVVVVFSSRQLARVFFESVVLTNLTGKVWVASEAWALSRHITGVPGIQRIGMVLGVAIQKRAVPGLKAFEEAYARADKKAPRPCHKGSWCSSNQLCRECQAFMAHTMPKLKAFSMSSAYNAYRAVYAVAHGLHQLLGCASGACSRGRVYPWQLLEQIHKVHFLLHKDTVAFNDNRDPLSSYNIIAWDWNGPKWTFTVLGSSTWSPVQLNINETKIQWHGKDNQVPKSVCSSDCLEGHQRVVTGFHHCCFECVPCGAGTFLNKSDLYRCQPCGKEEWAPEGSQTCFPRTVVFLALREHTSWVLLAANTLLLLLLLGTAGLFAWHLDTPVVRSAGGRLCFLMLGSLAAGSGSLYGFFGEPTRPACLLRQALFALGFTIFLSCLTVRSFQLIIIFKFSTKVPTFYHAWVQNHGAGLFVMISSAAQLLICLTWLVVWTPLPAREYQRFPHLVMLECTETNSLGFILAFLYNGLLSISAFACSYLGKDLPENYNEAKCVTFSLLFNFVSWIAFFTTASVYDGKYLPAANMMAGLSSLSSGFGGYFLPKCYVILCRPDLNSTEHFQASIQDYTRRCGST
Sequence (Q7RTX0 21-852 C757R): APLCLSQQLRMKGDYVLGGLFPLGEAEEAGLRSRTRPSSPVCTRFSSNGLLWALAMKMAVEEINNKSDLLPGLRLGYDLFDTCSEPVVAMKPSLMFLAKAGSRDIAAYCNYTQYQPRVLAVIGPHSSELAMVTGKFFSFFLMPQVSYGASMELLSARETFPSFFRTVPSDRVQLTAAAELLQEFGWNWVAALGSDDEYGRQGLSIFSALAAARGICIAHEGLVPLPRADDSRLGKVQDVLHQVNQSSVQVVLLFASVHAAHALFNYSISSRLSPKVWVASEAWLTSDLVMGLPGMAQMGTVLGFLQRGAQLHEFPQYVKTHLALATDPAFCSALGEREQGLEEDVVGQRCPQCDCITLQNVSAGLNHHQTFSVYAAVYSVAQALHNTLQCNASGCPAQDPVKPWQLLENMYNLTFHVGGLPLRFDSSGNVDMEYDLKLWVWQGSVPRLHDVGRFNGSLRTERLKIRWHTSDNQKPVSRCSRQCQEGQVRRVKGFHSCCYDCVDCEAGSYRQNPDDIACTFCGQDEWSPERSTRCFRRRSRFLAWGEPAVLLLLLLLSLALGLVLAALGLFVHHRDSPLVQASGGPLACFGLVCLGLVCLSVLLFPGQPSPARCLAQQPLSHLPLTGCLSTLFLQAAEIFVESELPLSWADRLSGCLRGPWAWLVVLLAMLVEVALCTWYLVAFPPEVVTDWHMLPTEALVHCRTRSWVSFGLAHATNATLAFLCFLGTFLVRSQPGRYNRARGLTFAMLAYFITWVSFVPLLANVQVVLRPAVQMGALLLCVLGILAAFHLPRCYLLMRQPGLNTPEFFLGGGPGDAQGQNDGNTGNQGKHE
Experiment: Umami FLIPR assay, HEK-Gα15 clone I-17 inducibly expressing T1R1/T1R3
Conditions: Table 1 Umami Amides
Recorded measurements of EC50, one per entry
metricName: EC50

COc1ccc(CNC(O)c2ccccc2-c2ccccc2)c(OC)c1 (centres unmarked) [Compound A104]: 1370 nM
CC[C@@H](C)[C@@](C)(NC(=O)c1ccc2c(c1)OCO2)C(=O)OC [Compound A42]: 350 nM
CCCC(CCC)NC(=O)c1cc2cc(C)ccc2o1 [Compound A10]: 910 nM
COC(=O)[C@@H](CC(C)C)NC(=O)c1ccc2nc(C)oc2c1 [Compound A25]: 1480 nM
CCC[C@@H](NC(=O)c1ccc(OC)c(Cl)c1)C(=O)OC [Compound A67]: 290 nM
